test system: human hair follicle dermal papilla cells (hDPCs); assay: Cell viability (MTT) of hDPCs under oligomer Aβ-induced cytotoxicity; details: hDPCs treated with 2 nM oligomer Aβ and 25 μg/ml compound, 72 hours, as compared with group (N)
Assignment: determine reported cell viability for the given molecules.
Give bare numbers, in %.

Some solved cases for reference:
1) c1ccc(CNc2ccc(N3CCOCC3)cc2)nc1 | 87
2) Nc1ccc(NCc2ccccn2)cc1 | 82
3) CC(=O)Nc1ccc(N(C)C)cc1 [Compound 4, N-(4-dimethylamino)phenyleneacetamide] | 74

For the 2 molecules below, give their cell viability values.
1. CC(=O)Nc1ccc(NC(C)=O)cc1 [Compound 6, N,N-(1,4-phenylene)diacetate Amide]
2. CC(=O)Nc1ccc(N)cc1 [Compound 5, N-(4-aminophenyl)acetamide]

1. 86
2. 77
